# Tested on: CCRF-CEM
# experimental.protocol: Inhibitory activity against the HIV-1 in CEM cells
# Format: functional, cell-based
# measurement.context: Homo sapiens
Assign pIC50 to each entry below.
Just the number, please; pIC50 means minus log10 of the concentration in mol/L.

pIC50 in this record for `C=C(C)[C@@H]1CC[C@]2(C(=O)NCCCCCCC(=O)O)CC[C@]3(C)[C@H](CC[C@@H]4[C@@]5(C)CC[C@H](O)C(C)(C)[C@@H]5CC[C@]43C)[C@@H]12` : 4.92

Measured pIC50, C=C(C)[C@@H]1CC[C@]2(C(=O)NCCCCC(=O)NCCCCC(=O)O)CC[C@]3(C)[C@H](CCC4[C@@]5(C)CC[C@H](O)C(C)(C)[C@@H]5CC[C@]43C)[C@@H]12 (some centres not stated) : 5.35

What the record says about C=C(C)[C@@H]1CC[C@]2(C(=O)NCCCC(=O)NCCCCCC(=O)O)CC[C@]3(C)[C@H](CCC4[C@@]5(C)CC[C@H](O)C(C)(C)[C@@H]5CC[C@]43C)[C@@H]12 (some centres not stated) : pIC50 is 5.26

Per the records, this compound ( C=C(C)[C@@H]1CC[C@]2(C(=O)NCCCCCC(=O)NCCCC(=O)O)CC[C@]3(C)[C@H](CCC4[C@@]5(C)CC[C@H](O)C(C)(C)[C@@H]5CC[C@]43C)[C@@H]12 (some centres not stated) ) has pIC50 equal to 5.52

The recorded pIC50 for Cc1ccnc2c1NC(=O)c1cccnc1N2C1CC1 [NEVIRAPINE] is 7.08

`C=C(C)[C@@H]1CC[C@]2(C(=O)NCCCCCC(=O)O)CC[C@]3(C)[C@H](CC[C@@H]4[C@@]5(C)CC[C@H](O)C(C)(C)[C@@H]5CC[C@]43C)[C@@H]12` yielded pIC50 of 5.64

// pIC50 value for C=C(C)[C@@H]1CC[C@]2(C(=O)NCCCCCCC(=O)NCCC(=O)O)CC[C@]3(C)[C@H](CCC4[C@@]5(C)CC[C@H](O)C(C)(C)[C@@H]5CC[C@]43C)[C@@H]12 (some centres not stated) : 5.35
